# experimentalSystem: T1, neuropilin-1 (NRP1) on HEK293 cells overexpressing NRP1 (UniProt O14786 22-923, limits assumed)
# T1 construct: whole, on cells
# experimentSummary: flow cytometry, HEK293-NRP1 vs HEK293
Some binders, each annotated with its measured 100 nM FACS (MFI Ratio).
Enter a number only.

NRP1-244 (antibody, IgG2, V domains shown) VH: EVQLLESGGGLVQPGGSLRLSCAASGFTFTSYGMSWVRQAPGKGLEWVSTISGSGGYTYYADSVKGRFTISRDNSKNTLYLQMNSLRAEDAAVYYCALWNRYGGLSYWGQGTLVTVSS VL: DIQMTQSPSSLSASVGDRVTITCRASQSIATYLHWYQQKPGKAPKLLIYGTSNLQSGVPSRFSGSGSGTDFTLTISSLQPEDFATYYCQQSYRTPGTFGGGTKVEIK | 2.1

Next up:
Data request: Reported 100 nM FACS (MFI Ratio), binder NRP1-248 (antibody, IgG2, V domains shown) VH: EVQLLESGGGLVQPGGSLRLSCAASGFTFSKYAMSWVRQAPGKGLEWVSSISTSGGSTYYADSVKGRFTISRDNSKNTLYLQMNSLRAEDTAVYYCARGLLRLKPERRVRTTYYYGMDVWGQGTLVTVSS VL: DIQMTQSPSSLSASVGDRVTITCRTSQSIGSYLNWYQQKPGKAPKLLIYASSSLQSGVPSRFSGSGSGTDFTLTISSLQPEDFATYYCQQSYSTPFSFGGGTKVEIK : ____
Data returned: 5
